The compounds listed here are annotated with their activity change, negative = cytotoxicity.
Experiment: qHTS RealTime-Glo MT Cell Viability Assay in HEK293 cells - 16 hour (AID 1224872); note: top concentration of the series differs between compounds; % is set by controls: 0 for no effect and ±100 for the full control effect; nearly all actives have a fitted effect of over 50% in size
Conditions: RealTime-Glo luminescence; series mostly up to 76.8 µM
Inconclusive results are not listed. Active and inactive are the calls of the source. Calls come from the whole dose curve; as a rule, active = well fitted cell-killing curve with a large enough effect in the repeat runs; inconclusive = weak or mixed curves, or effect the other way; inactive = flat fitted curve, though single readings scatter.

Here is how some compounds turned out for activity change, negative = cytotoxicity.
> print(dat)
                               input.smiles                  observed.value
1  C/C(=C(\CCOP(=O)(O)O)SC(=O)c1ccccc1)N(C=O)Cc1cnc(C)nc1N   2.81% [at 6.97 µM] (inactive)
2                 Cc1[nH]c(C)c(Cl)c(=O)c1Cl  -23.6% [at 15.8 µM] (inactive)
3                                  NCC(=O)O   4.48% [at 15.8 µM] (inactive)
4  CN(C)c1ccc(/C=C/c2ccc([N+](=O)[O-])cc2)cc1  -4.94% [at 6.97 µM] (inactive)

Here's the next entry for you.
Enquiry: Retrieve activity change, negative = cytotoxicity measured for C/C=C/C(=O)CC and print it.
Return: 1.69% [at 15.8 µM] (inactive)

====

Test: qHTS assay to identify small molecule antagonists of the progesterone receptor (PR) signaling pathway - cell viability counter screen (AID 1346798); note: nearly all actives have a fitted effect of over 50% in size
Settings: PR-UAS-bla HEK293T viability, CellTiter-Glo luminescence, 16 h; series mostly up to 92.4 µM
Inconclusive results are not listed. The source made the active and inactive calls. Calls follow the shape of the dose curve; as a rule, active = well fitted cell-killing curve with a large enough effect in the repeat runs; inconclusive = weak or mixed curves, or effect the other way; inactive = no such curve, though single readings can be large or run the other way.
Select the correct class. Options are active, inactive and nothing else.

A selection of reference data follows.
> print(dat)
                                   compound  assigned.class
1  COc1ccc(C(=O)N2CCN(CC(=O)N3CCOCC3)CC2)cc1        inactive
2  CCOC(=O)C1=C[C@]2(CC)CCCN3CCc4c(n1c1ccccc41)[C@@H]32        inactive
3  Cc1oc2c(NC(=O)c3c(Cl)cccc3Cl)cccc2c1C(C)(C)O        inactive
4  CCC(Cl)CCC(Cl)C(Cl)CC(Cl)C(Cl)C(Cl)CCl (configuration not stated)        inactive
5                CN(C)CCN(Cc1ccsc1)c1ccccn1        inactive
6  COc1cc(C(=O)OCCCN2CCCN(CCCOC(=O)c3cc(OC)c(OC)c(OC)c3)CC2)cc(OC)c1OC        inactive

Enquiry: Recorded call for CCN(CC)c1ccc(C(=C2C=CC(=[N+](CC)CC)C=C2)c2cc(S(=O)(=O)O)ccc2S(=O)(=O)[O-])cc1 ?
Return: inactive

Enquiry: Recorded call for CC(C)(C)Cl ?
Return: inactive

Enquiry: Recorded call for Nc1ccc(N)c2c1C(=O)c1ccccc1C2=O ?
Return: active

Enquiry: Recorded call for CC1(c2ccccc2)OC(C(=O)O)=CC1=O (configuration not stated) ?
Return: inactive

Enquiry: Recorded call for COC(C)OC ?
Return: inactive

Enquiry: Recorded call for CCCCCCc1ccc(-c2ccc(C#N)cc2)cc1 ?
Return: inactive

====

Biological target: Cytochrome P450 2C9 (Homo sapiens) (UniProt P11712)
Sequence (P11712 whole entry, looked up): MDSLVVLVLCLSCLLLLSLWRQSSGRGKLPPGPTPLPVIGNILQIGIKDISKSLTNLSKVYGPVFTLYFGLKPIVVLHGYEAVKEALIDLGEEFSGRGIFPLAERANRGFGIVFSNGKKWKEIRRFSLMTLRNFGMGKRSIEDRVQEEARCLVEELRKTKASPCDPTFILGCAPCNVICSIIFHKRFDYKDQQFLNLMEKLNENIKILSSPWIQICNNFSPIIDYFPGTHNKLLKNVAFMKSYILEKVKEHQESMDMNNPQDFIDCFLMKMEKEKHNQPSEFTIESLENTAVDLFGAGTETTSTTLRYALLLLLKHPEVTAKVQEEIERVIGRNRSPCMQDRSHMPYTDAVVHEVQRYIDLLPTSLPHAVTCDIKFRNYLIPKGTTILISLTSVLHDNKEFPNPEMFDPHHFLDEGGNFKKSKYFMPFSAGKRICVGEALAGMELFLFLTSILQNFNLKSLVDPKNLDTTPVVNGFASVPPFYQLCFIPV
Assay: Cytochrome P450 Family 2 Subfamily C Member 9 (CYP2C9) small molecule antagonists: luciferase reporter qHTS assay (AID 1671198); note: nearly all actives have a fitted effect of over 50% in size
Settings: P450-Glo CYP2C9 enzyme assay, luciferin luminescence; series mostly up to 115 µM
Inconclusive results are not listed. Activity calls are given as the source filed them. Calls follow the shape of the dose curve; as a rule, active = well fitted inhibition curve with a large enough effect in the repeat runs; inconclusive = weak or mixed curves; inactive = no such curve, though single readings can be large or run the other way.
Select the correct class. Options are y = active, n = inactive and nothing else.

Enquiry: Recorded call for CC(C)(O)c1ccc(CNC(=O)c2cccnc2Oc2ccc(F)cc2)cc1 ?
Return: y

Enquiry: Recorded call for COc1ccc2cccc(CCNC(C)=O)c2c1 ?
Return: y

Enquiry: Recorded call for CC1CCC(=O)C1=O (centres undefined) ?
Return: n

Enquiry: Recorded call for OCCNCc1ccccc1 ?
Return: n

Enquiry: Recorded call for CCCCC/C=C\C/C=C\CCCCCCCC(=O)NC(C)c1ccccc1 (centres undefined) ?
Return: y

Enquiry: Recorded call for CCO[Si](CCCCl)(OCC)OCC ?
Return: y
